Just for reference, patent US20200390689A1 is where these values come from.

- Test system: IL-4-mediated upregulation of CD23 and CD25 on monocytes
- ASSAY INFO: IL-4-mediated upregulation of cell surface markers CD23 and CD25 on monocytes
- Format: cell-based
- MEASUREMENT PARAMETERS: Homo sapiens, Monocyte, read-out: IC50, IL-4-mediated upregulation of CD25
pIC50: −log10 of the molar value.
ENDPOINT: pIC50

| COMPOUND STRING | SYSTEM | VALUE OBSERVED |
| --- | --- | --- |
| CCS(=O)(=O)N1CCN(c2ccc(Nc3ncc(C(N)=O)c(NC4CC4)n3)cc2)CC1 | IL-4-mediated upregulation of CD23 and CD25 on monocytes | 6.38 |

----------
- SYSTEM: JAK1 (Homo sapiens, UniProt P23458)
- Sequence (P23458 whole entry): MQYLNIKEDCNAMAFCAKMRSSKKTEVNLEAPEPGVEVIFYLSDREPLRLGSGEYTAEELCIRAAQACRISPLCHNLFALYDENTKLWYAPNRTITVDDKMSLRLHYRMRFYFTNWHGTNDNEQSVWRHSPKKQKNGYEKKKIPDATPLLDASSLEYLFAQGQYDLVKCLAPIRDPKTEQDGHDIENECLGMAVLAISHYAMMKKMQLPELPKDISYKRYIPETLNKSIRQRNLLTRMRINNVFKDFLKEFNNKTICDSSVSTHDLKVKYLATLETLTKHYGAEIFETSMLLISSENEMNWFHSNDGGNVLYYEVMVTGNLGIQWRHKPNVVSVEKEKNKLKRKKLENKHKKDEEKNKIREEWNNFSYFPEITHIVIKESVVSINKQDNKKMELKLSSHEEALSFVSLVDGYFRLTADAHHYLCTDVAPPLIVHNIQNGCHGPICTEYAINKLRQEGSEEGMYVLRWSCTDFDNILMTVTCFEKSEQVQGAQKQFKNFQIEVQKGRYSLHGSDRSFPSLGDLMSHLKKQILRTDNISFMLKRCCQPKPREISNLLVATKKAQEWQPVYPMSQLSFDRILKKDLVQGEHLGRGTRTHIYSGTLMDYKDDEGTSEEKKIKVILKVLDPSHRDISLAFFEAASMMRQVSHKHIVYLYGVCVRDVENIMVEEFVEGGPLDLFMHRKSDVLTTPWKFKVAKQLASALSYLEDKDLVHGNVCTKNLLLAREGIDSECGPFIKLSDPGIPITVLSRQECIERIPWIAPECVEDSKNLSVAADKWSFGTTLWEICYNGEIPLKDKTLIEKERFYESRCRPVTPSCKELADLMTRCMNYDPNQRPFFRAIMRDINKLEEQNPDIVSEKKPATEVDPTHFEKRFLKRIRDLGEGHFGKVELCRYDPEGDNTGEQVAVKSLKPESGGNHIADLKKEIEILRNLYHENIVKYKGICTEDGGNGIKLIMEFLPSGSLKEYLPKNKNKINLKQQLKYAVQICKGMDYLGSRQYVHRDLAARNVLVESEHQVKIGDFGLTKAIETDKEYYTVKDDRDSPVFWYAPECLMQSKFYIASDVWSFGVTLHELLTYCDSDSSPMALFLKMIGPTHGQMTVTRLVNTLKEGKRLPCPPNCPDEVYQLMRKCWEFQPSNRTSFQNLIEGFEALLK
- ASSAY INFO: cell-based
pIC50: −log10 of the molar value.

| COMPOUND STRING | SYSTEM | pIC50 |
| --- | --- | --- |
| CCS(=O)(=O)N1CCN(c2ccc(Nc3ncc(C(N)=O)c(NC4CC4)n3)cc2)CC1 | JAK1 (Homo sapiens, UniProt P23458) | 7.01 |

----------
- System: IL-4 (JAK1/3-mediated) STAT6 Y641 phosphorylation
- ASSAY INFO: IL-4 stimulated STAT6 Y641 phosphorylation in human whole blood
- Type: cell-based
- MEASUREMENT PARAMETERS: CD4+ T cells
pIC50: −log10 of the molar value.
ENDPOINT: pIC50

| COMPOUND STRING | VALUE OBSERVED |
| --- | --- |
| CCS(=O)(=O)N1CCN(c2ccc(Nc3ncc(C(N)=O)c(NC4CC4)n3)cc2)CC1 | 6.24 |

----------
- SYSTEM: Tyk2 (Homo sapiens, UniProt P29597)
- Construct: DiscoveRx
- Sequence (P29597 whole entry): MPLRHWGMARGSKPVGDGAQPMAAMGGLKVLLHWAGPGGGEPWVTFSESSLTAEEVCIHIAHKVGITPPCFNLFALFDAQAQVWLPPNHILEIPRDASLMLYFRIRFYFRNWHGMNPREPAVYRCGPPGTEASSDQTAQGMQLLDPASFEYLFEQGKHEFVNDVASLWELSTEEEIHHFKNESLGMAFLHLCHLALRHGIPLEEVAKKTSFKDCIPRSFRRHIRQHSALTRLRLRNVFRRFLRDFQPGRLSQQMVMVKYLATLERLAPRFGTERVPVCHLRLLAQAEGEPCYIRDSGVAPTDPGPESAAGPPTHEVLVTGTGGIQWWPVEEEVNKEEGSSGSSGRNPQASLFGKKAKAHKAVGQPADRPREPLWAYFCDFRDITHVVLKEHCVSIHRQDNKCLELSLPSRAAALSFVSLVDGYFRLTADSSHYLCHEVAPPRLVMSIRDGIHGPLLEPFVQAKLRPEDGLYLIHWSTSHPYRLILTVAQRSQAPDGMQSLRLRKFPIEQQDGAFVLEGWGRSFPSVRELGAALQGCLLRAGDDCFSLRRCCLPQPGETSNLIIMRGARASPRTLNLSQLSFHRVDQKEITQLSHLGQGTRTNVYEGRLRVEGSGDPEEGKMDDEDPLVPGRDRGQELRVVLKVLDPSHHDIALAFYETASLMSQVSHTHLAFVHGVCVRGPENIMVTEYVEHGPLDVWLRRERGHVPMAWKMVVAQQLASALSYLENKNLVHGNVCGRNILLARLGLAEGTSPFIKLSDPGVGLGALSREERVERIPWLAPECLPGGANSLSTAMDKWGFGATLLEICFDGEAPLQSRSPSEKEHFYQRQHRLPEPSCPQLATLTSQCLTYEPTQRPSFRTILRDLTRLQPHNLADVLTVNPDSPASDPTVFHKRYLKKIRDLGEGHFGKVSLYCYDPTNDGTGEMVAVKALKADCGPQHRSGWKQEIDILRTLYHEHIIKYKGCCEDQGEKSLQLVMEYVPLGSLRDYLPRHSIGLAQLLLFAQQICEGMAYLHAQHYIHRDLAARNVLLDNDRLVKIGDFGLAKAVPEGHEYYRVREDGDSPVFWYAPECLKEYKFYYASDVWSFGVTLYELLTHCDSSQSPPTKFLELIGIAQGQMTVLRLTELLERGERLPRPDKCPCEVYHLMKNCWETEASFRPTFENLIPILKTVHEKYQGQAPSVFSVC
- ASSAY INFO: DiscoveRx cellular platform, Tyk2

| MOLECULE | IC50 [nM] |
| --- | --- |
| CCS(=O)(=O)N1CCN(c2ccc(Nc3ncc(C(N)=O)c(NC4CC4)n3)cc2)CC1 [DMVT-502, Cerdulatinib] | 1720 |
